ASSAY NOTES: NCI Yeast Anticancer Drug Screen. Data for the rad14 strain (AID 159)
RUN CONDITIONS: S. cerevisiae rad14 strain growth inhibition; at 1.2 µM; active compounds read high
About 79,000 compounds went through this panel and 15% of them were active in at least one assay; those are over-represented in the sample as a whole.
Record T whenever growth inhibition is at -10% or higher; record F when lower.

Please review the following examples before continuing.
compound=Cc1c(C(C)C)cc(OCCO)cc1C(C)C category_label=T
compound=COc1cc(/C=C2\NC(=O)N(/C=C3\C(=O)Oc4ccccc4C3=O)C2=O)ccc1O category_label=T
compound="COc1cc(C2c3cc4c(cc3OC(OC(C)=O)C2C)OCO4)cc(OC)c1OC (stereo unspecified)" category_label=T
compound=O=C(O)CNC(=S)Nc1ccccc1 category_label=F
compound=CCCC(=O)Oc1ccc(/C=N/NC(N)=S)nc1 category_label=T
compound=CCCCc1ccc(-n2c(C)c(COC(=O)NC)c(COC(=O)NC)c2C)cc1 category_label=F
compound=CCC(=O)c1cc(C(=O)C(=S)SC)cc(C(=O)C(=S)SC)c1 category_label=T
compound=COc1ccc(C(=O)C(CN(C)C)CN(C)C)cc1 category_label=F

Quick check, growth inhibition >= -10%? O=[N+]([O-])c1cccc2nc3ccccc3c(NCCC[N+]3([O-])CCCCC3)c12
T

# check: growth inhibition of CCCCc1nnc(NS(=O)(=O)c2ccc(C)cc2)s1 is greater than or equal to -10%
F

# bool: growth inhibition of CCOC(=O)C(C(=O)OCC)=P(c1ccccc1)(c1ccccc1)c1ccccc1 >= -10%
T

Origin of values: PubChem BioAssay (NCI)
